System: 958667-338-R-J2-PDC tumor spheroids viability;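 also: spheroids exposed to compounds for seven days before readout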
TEST DESCRIPTION: Anticancer human tumor 958667-338-R-J2-PDC patient-derived colon adenocarcinoma cell line growth inhibition [PI3K]
ASSAY SETUP: second compound 0.01 µM; first compound 3.16 µM; hits give low values; spheroids with HUVEC and MSC
QUANTITY MEASURED: viability, T/C (%)
Respond numerically; units are % and should not be typed.

Study these solved cases before continuing.
- COMPOUND: "CC1(C)CCC(Nc2ncc(C(F)(F)F)c(-c3c[nH]c4c(P(C)(C)=O)c(C#N)ccc34)n2)CN1 (stereo unspecified) + COc1c(OCCCN2CCOCC2)ccc2c3n(c(=NC(=O)c4cnc(N)nc4)nc12)CCN3"
  viability, T/C, %: 58.7
- COMPOUND: "C[C@@H](NC(=O)c1ncnc(N)c1Cl)c1ncc(C(=O)Nc2cc(C(F)(F)F)c(Cl)cn2)s1 + CC(Nc1ccc2c(c1)OCCn1cc(N3C(=O)OCC3C(F)F)nc1-2)C(N)=O"
  viability, T/C, %: 101
- COMPOUND: "C#Cc1c(F)ccc2cc(O)cc(-c3ncc4c(N5CC6CCC(C5)N6)nc(OCC56CCCN5CC(F)C6)nc4c3F)c12 (stereo unspecified) + COc1c(OCCCN2CCOCC2)ccc2c3n(c(=NC(=O)c4cnc(N)nc4)nc12)CCN3"
  viability, T/C, %: 68.7

Entry Cn1ncc(Cl)c1-c1cc(C(=O)NC(CN)Cc2cccc(F)c2)sc1Cl (stereo unspecified) + COc1c(OCCCN2CCOCC2)ccc2c3n(c(=NC(=O)c4cnc(N)nc4)nc12)CCN3 : reported viability, T/C = ?
50.6

// same read-out, input: CNC(=O)c1ccc(N2C(=S)N(c3ccc(C#N)c(C(F)(F)F)c3)C(=O)C2(C)C)cc1F + COc1c(OCCCN2CCOCC2)ccc2c3n(c(=NC(=O)c4cnc(N)nc4)nc12)CCN3
105

// same read-out, input: Cn1ncc(Cl)c1-c1cc(C(=O)NC(CN)Cc2cccc(F)c2)sc1Cl (stereo unspecified) + CC(Nc1ccc2c(c1)OCCn1cc(N3C(=O)OCC3C(F)F)nc1-2)C(N)=O
41.8

// same read-out, input: CC(Cn1ccc(-c2ccc(C#N)c(Cl)c2)n1)NC(=O)c1cc(C(C)O)[nH]n1 (stereo unspecified) + COc1c(OCCCN2CCOCC2)ccc2c3n(c(=NC(=O)c4cnc(N)nc4)nc12)CCN3
104
